test: Ratio of biodistributions in Athymic mice bearing human Tumor (TE671) xenografts in Heart (H) and Blood (B); type: ADME, organism-based; details: mouse, read-out: Biodistribution ratio
measured_attribute: Kp

- COC(=O)c1ccccc1-c1c2ccc(=N)cc-2oc2cc(N)ccc12.[125IH]: 0.5

* * *

assay: Ratio of biodistributions in Athymic mice bearing human Tumor (LS174T) xenografts in Tumor (T) and blood (B); type: ADME, organism-based; conditions: mouse, read-out: Biodistribution ratio
measured_attribute: Kp

* COC(=O)c1ccccc1-c1c2ccc(=N)cc-2oc2cc(N)ccc12.[125IH] | 0.34

* * *

assay: Ratio of biodistributions in Athymic mice bearing human Tumor (LS174T) xenografts in Heart (H) and Blood (B); format: ADME, organism-based; conditions: mouse, read-out: Biodistribution ratio
measured_attribute: Kp

• COC(=O)c1ccccc1-c1c2ccc(=N)cc-2oc2cc(N)ccc12.[125IH] = 0.5
